Attribution: ChEMBL document CHEMBL1152035

Would you mind telling me the reported IC50 of each entry?
# assayed.target: Protein farnesyltransferase (Homo sapiens, UniProt P49354+P49356)
# measurement.notes: Inhibition of ras Farnesyltransferase
# Format: protein-complex assay

Entry `CC(C)=CCC/C(C)=C/CC/C(C)=C/CN[C@@H](CCC(=O)N[C@H](C(=O)N[C@@H](CC(C)C)C(=O)N[C@@H](CO)C(=O)O)C(C)C)C(=O)O` ; IC50 = 3.4 µM

The reported value for CC(C)=CCC/C(C)=C/CC/C(C)=C/CC(CCCC(=O)N[C@H](C(=O)N[C@@H](CC(C)C)C(=O)N[C@@H](CO)C(=O)O)C(C)C)C(=O)O (stereo partly specified) in terms of IC50 is 1.2 µM

Item: CC(C)=CCC/C(C)=C/CC/C(C)=C/CC(CCC(=O)N[C@H](C(=O)N[C@@H](CC(C)C)C(=O)N[C@@H](CO)C(=O)O)C(C)C)C(=O)O (stereo partly specified) | IC50: 0.9 µM

The reported IC50 of the compound CCOC(=O)C(C/C=C(\C)CC/C=C(\C)CCC=C(C)C)CCC(=O)N[C@H](C(=O)N[C@@H](CC(C)C)C(=O)N[C@@H](CO)C(=O)O)C(C)C (stereo partly specified) was > 360 µM

The recorded IC50 for CC(C)=CCC/C(C)=C/CC/C(C)=C/C(=O)N[C@@H](CCC(=O)N[C@H](C(=O)N[C@@H](CC(C)C)C(=O)N[C@@H](CO)C(=O)O)C(C)C)C(=O)O (stereo in doubt; 29 (D)) is 3.4 µM

So, `CC(C)=CCC/C(C)=C/CC/C(C)=C/CCCCC(=O)N[C@H](C(=O)N[C@@H](CC(C)C)C(=O)N[C@@H](CO)C(=O)O)C(C)C` ? Its IC50 was > 360 µM
